- assay-target: recombinant human MASP2 active protease (amino acids 297-686, C-terminal His Tag) (human, UniProt O00187 297-686)
- Sequence (O00187 other isoform, or with tags, fused parts or gaps limits assumed): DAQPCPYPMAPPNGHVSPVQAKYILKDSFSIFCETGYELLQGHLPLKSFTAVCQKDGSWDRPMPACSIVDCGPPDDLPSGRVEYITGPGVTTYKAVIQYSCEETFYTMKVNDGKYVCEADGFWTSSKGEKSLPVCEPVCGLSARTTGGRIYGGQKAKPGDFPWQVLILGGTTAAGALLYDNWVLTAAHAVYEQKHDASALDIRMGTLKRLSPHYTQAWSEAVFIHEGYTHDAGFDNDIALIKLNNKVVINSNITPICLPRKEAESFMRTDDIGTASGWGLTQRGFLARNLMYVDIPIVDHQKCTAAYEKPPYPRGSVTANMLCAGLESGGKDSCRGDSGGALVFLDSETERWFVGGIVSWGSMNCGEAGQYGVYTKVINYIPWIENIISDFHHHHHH
- assay: cell-based or functional assay
Numbered stars: 1 amine (or outer) side, 2 acyl side, 3 side chain; on linkers, the order of the positions; unused ones are H or OH. Bridge positions count the residues as written; N and C are the ends. Square brackets hold non-standard residues; d marks the D form. Ends that are not written are not given here. NH(CH2CH2O)5CH2CO = O=C(COCCOCCOCCOCCOCCN[*:1])[*:2]; Oic = O=C(O)[C@@H]1C[C@@H]2CCCC[C@@H]2N1; tBuAla = CC(C)(C)C[C@H](N)C(=O)O; Pen = CC(C)(S)[C@H](N)C(=O)O; NMeC = CN[C@@H](CS)C(=O)O; Sar = CNCC(=O)O
Lab note: cut-off is 100 nM. Strictly less in human MASP2 IC50 is yes (1). Exactly 100 nM or more is no (0).

[Sar]ICSRS[tBuAla]PPI[Pen]IP[NH(CH2CH2O)5CH2CO]-NH2 (disulfide 3-11; N-terminus assumed; SMILES CC[C@H](C)[C@H](NC(=O)CNC)C(=O)N[C@H]1CSSC(C)(C)[C@@H](C(=O)N[C@H](C(=O)N2CCC[C@H]2C(=O)NCCOCCOCCOCCOCCOCC(N)=O)[C@@H](C)CC)NC(=O)[C@H]([C@@H](C)CC)NC(=O)[C@@H]2CCCN2C(=O)[C@@H]2CCCN2C(=O)[C@H](CC(C)(C)C)NC(=O)[C@H](CO)NC(=O)[C@H](CCCNC(=N)N)NC(=O)[C@H](CO)NC1=O) [((N-Me)G)-IC+SRS-((tBu)A)-PPI-(Pen)+IP-(PEG5-CH2CO2H (18 atoms))-NH2] ... yes (1)
KICSRS[tBuAla]PPI[NMeC]I-NH2 (disulfide 3-11; N-terminus assumed; SMILES CC[C@H](C)[C@H](NC(=O)[C@@H]1CSSC[C@H](NC(=O)[C@@H](NC(=O)[C@@H](N)CCCCN)[C@@H](C)CC)C(=O)N[C@@H](CO)C(=O)N[C@@H](CCCNC(=N)N)C(=O)N[C@@H](CO)C(=O)N[C@@H](CC(C)(C)C)C(=O)N2CCC[C@H]2C(=O)N2CCC[C@H]2C(=O)N[C@@H]([C@@H](C)CC)C(=O)N1C)C(N)=O) [KIC+SRS-((tBu)A)-PPI-((N-Me)C)+I-NH2] ... no (0)

Note: attention shifts to another entry.
(Q) Lab note: confirm whether the reported human MASP2 IC50 for this binder is below 100 nM, equality not counting. binder: AICSRSLP[Oic]I[Pen]IPE-OH (disulfide 3-11; N-terminus assumed; SMILES CC[C@H](C)[C@H](NC(=O)[C@H](C)N)C(=O)N[C@H]1CSSC(C)(C)[C@@H](C(=O)N[C@H](C(=O)N2CCC[C@H]2C(=O)N[C@@H](CCC(=O)O)C(=O)O)[C@@H](C)CC)NC(=O)[C@H]([C@@H](C)CC)NC(=O)[C@@H]2C[C@@H]3CCCC[C@@H]3N2C(=O)[C@@H]2CCCN2C(=O)[C@H](CC(C)C)NC(=O)[C@H](CO)NC(=O)[C@H](CCCNC(=N)N)NC(=O)[C@H](CO)NC1=O) [AIC+SRSLP-(Oic)-I-(Pen)+IPE-OH]
(A) no (0)
